Attribution: paper PMC9264368

Each entry below carries its recorded pIC50.
- System Under Test: Notum (Homo sapiens, UniProt Q6P988, C330S)
- Sequence (Q6P988 81-451 C330S): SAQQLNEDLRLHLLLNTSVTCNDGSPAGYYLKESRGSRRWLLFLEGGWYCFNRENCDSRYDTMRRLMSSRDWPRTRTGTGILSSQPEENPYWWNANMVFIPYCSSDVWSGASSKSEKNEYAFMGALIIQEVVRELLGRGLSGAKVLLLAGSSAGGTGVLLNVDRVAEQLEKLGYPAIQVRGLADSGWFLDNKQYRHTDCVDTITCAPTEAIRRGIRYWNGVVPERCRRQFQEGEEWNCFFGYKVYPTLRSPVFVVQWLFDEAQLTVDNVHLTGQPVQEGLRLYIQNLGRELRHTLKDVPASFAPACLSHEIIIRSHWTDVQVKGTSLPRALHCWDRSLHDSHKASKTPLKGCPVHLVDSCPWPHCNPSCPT
- Measurement Conditions: read-out: Notum IC50; Table S1; mean ± s.d. of N = 2-4 unless stated
pIC50: −log10 of the molar value.
Value Type: pIC50

{"columns": ["Molecule", "System Under Test", "Recorded Value"],
 "data": [
  ["Cc1cccc2nc(NC#N)n(C)c12 [15l]", "Notum (Homo sapiens, UniProt Q6P988, C330S)", 5.66],
  ["N#CNc1nc2cc(C(F)(F)F)ccc2[nH]1 [15j]", "Notum (Homo sapiens, UniProt Q6P988, C330S)", 4.44],
  ["Cc1ccc2[nH]c(NC#N)nc2c1 [15g]", "Notum (Homo sapiens, UniProt Q6P988, C330S)", 4.00],
  ["N#CNc1nc2c(Cl)cccc2[nH]1 [15c]", "Notum (Homo sapiens, UniProt Q6P988, C330S)", 5.66],
  ["N#CNc1nc2c(C(F)(F)F)cccc2[nH]1 [15e]", "Notum (Homo sapiens, UniProt Q6P988, C330S)", 4.92]
]}
